- TARGET DESC: human adenosine receptor sub-type A2b (Homo sapiens (Human))
- Sequence (P29275 whole entry): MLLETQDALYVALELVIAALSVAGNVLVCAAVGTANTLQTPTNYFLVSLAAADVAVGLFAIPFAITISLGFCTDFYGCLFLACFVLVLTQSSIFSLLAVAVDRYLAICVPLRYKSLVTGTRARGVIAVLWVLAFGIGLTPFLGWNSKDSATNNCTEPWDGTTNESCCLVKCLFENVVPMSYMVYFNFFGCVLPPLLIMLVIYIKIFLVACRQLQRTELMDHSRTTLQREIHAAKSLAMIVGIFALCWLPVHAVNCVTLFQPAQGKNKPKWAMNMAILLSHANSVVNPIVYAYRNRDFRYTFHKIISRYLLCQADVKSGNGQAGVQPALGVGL
- PROCEDURE DETAILS: Affinity for human adenosine A2b receptor by SPR
- Format: binding
- EXPERIMENTAL CONDITIONS: from SPR IC50 values, rounded to 2 significant figures
- Description: Affinity for the human adenosine receptor sub-types (A2a, A2b, A1 and A3) was determined by surface plasmon resonance (SPR) using published methodologies (see below for further details). Affinity for the human adenosine receptor sub-types (A2a, A2b, A1 and A3) was determined by SPR as described in Aristotelous, T., et al, Methods in Enzymology (2015), Volume 556, Chapter 23, pages 499-525 and Congreve, M., et al, J Med Chem (2012), Vol. 55, pages 1898-1903. […]
READOUT: Relative selectivity for A2a v. A2b

Cc1ccc(Cn2cc3c(N)nc(-c4cnccn4)nc3n2)cc1	1100
Cc1ccc(Cn2cc3c(N)nc(-c4ccsn4)nc3n2)cc1F	260
Cc1ccc(Cn2cc3c(N)nc(-c4ccsn4)nc3n2)cc1C(F)(F)F	3200
COc1ccccc1Cn1cc2c(N)nc(-c3ccsn3)nc2n1	2700
COc1ccccc1Cn1cc2c(N)nc(-c3ccc(C)o3)nc2n1 [Comparative Example 1, reference compound]	2200

[P] Nc1nc(-c2ccsn2)nc2nn(Cc3cccc(Cl)c3)cc12
[Q] COc1ccccc1Cn1cc2c(N)nc(-c3cnco3)nc2n1
Request: Between P and Q , which one shows the smaller Relative selectivity for A2a v. A2b number? Identify your selection by its label.
Result: P

[A] COc1cccc(Cn2cc3c(N)nc(-c4cnco4)nc3n2)c1
[B] Cc1cccc(Cn2cc3c(N)nc(-c4ccsn4)nc3n2)c1
Request: Between A and B , which one shows the smaller Relative selectivity for A2a v. A2b number? Identify your selection by its label.
Result: A

---

- TARGET DESC: human adenosine receptor sub-type A3 (Homo sapiens (Human))
- Sequence (P0DMS8 whole entry): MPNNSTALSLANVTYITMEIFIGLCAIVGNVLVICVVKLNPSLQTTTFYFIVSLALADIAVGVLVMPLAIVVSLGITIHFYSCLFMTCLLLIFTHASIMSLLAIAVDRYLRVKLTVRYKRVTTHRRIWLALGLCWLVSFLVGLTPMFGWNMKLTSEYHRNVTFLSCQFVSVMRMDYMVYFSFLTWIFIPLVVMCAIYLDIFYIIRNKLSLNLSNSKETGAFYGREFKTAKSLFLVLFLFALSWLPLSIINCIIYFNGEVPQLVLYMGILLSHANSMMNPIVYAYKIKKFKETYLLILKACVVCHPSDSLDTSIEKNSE
pIC50: −log10 of the molar value.
READOUT: pIC50

[1] Cc1ccc(Cn2cc3c(N)nc(-c4ccsn4)nc3n2)cc1C(F)(F)F [Example 24]
[2] COc1ccccc1Cn1cc2c(N)nc(-c3ccc(C)o3)nc2n1 [Comparative Example 1, reference compound]
Request: Would you let me know which has the greater pIC50 value, 1 or 2 ? Identify your selection by its label.
Result: 2

---

The next entries give measured IC50 for human adenosine receptor sub-type A1 (Homo sapiens (Human), UniProt P30542).
READOUT: IC50 (nM)

Cc1ccc(Cn2cc3c(N)nc(-c4ccsn4)nc3n2)cc1C(F)(F)F [Example 24]	1420
Cc1ccc(Cn2cc3c(N)nc(-c4ccsn4)nc3n2)cc1F [Example 19]	1180
Cc1ccc(Cn2cc3c(N)nc(-c4cnccn4)nc3n2)cc1 [Example 12]	7300

[P] COc1ccccc1Cn1cc2c(N)nc(-c3ccc(C)o3)nc2n1 [Comparative Example 1, reference compound]
[Q] Nc1nc(-c2ccsn2)nc2nn(Cc3cccc(Cl)c3)cc12 [Example 35]
Request: Would you let me know which has the greater IC50 value, P or Q ? Identify your selection by its label.
Result: Q

---

- TARGET DESC: human adenosine receptor sub-type A1 (Homo sapiens (Human), UniProt P30542)
- Sequence (P30542 whole entry): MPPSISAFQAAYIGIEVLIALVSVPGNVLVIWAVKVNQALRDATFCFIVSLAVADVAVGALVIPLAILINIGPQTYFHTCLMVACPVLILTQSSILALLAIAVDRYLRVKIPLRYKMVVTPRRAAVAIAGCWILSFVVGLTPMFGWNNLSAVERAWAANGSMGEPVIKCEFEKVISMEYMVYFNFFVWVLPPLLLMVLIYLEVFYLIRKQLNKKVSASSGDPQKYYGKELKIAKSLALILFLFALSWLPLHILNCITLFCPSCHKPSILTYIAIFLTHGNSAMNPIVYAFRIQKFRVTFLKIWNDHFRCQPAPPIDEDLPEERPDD
- PROCEDURE DETAILS: Affinity for human adenosine A1 receptor by SPR
- Format: binding
- EXPERIMENTAL CONDITIONS: from SPR IC50 values, rounded to 2 significant figures
READOUT: Relative selectivity for A2a v. A1

Cc1ccc(Cn2cc3c(N)nc(-c4ccsn4)nc3n2)cc1C(F)(F)F [Example 24]	180
Cc1ccc(Cn2cc3c(N)nc(-c4cnccn4)nc3n2)cc1 [Example 12]	920
Nc1nc(-c2ccsn2)nc2nn(Cc3cccc(Cl)c3)cc12 [Example 35]	69
COc1cccc(Cn2cc3c(N)nc(-c4ccsn4)nc3n2)c1 [Example 10]	130
COc1ccccc1Cn1cc2c(N)nc(-c3cnco3)nc2n1 [Example 40]	500
Cc1cccc(Cn2cc3c(N)nc(-c4ccsn4)nc3n2)c1 [Example 1]	890
COc1ccccc1Cn1cc2c(N)nc(-c3ccc(C)o3)nc2n1 [Comparative Example 1, reference compound]	51

[P] COc1cccc(Cn2cc3c(N)nc(-c4cnco4)nc3n2)c1 [Example 11]
[Q] COc1ccccc1Cn1cc2c(N)nc(-c3ccsn3)nc2n1 [Example 38]
[R] Cc1ccc(Cn2cc3c(N)nc(-c4ccsn4)nc3n2)cc1F [Example 19]
Request: Please list these in order of increasing Relative selectivity for A2a v. A1. Thank you! // ordering of labels required in reply
Result: P, R, Q
(P: 71, R: 210, Q: 790)
